Target: N1 (A/HongKong/156/97 (H5N1)) sialidase (Influenza A virus, UniProt Q9W7Y7)
Sequence (Q9W7Y7 whole entry, looked up): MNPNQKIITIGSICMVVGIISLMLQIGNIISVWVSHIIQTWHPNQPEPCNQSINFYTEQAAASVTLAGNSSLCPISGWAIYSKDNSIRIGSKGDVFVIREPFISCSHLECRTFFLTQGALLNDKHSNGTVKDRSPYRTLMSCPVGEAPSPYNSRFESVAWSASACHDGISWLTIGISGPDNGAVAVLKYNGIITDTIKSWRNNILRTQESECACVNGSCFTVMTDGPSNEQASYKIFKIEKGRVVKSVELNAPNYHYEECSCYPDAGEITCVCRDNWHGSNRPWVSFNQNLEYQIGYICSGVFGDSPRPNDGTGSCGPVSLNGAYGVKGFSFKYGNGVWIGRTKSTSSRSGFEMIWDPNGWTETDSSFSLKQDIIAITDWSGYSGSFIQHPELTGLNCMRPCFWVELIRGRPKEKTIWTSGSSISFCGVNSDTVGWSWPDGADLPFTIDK
Test: biochemical
pKi: −log10 of the molar value.

{"MOLECULE": "CC(=O)N[C@H]1[C@H]([C@H](O)[C@H](O)CO)OC(C(=O)O)=C[C@@H]1N=C(N)N [Compound 1, zanamivir]", "pKi": 9.77}
